Tested on: PPARg DBDmut:RXRa IVT, anti-PPARg (DBD mutation: PPARg1 K132A/R137A, NR concentration 270 nM, RXRa partner concentration 90 nM)
Test: PBM binding z-score (relative to random genomic background probes); higher = stronger binding; sequences stand for … in GC…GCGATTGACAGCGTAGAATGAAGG
For each entry below, report its PBM binding z-score value.
Respond using a number only.

// TCATATAGGTATACAGGTGAAAGTCCGTAAGTTA : PBM binding z-score value = 0.449

// ACTCGGAGGACAAAGGCCAGAGCTACGCCAGTGA : PBM binding z-score value = -0.91

// CCTATTAGCTGACCATAAGGGCAACCGAAGCTCG : PBM binding z-score value = -0.689

// CCTGCTAGGTCATGGCCAGCTAATCTACAGTATG : PBM binding z-score value = 0.0686

// GATACAGGGTCAAGGCGAGAGTACGCGTATTGAT : PBM binding z-score value = 2.63

// ACTATTAGTTGAGGCGAGGGCAACCGATAGGTTG : PBM binding z-score value = 0.713
